Where these numbers come from: patent US8946439B2

target: hP2X2/3H (Homo sapiens, UniProt P56373+Q9UBL9); construct: expressed in transfected cells; host or cells: e.g. HEK293 or 1321N1; test: Calcium uptake assay (P2X antagonist assay), P2X2/3 heteromer; assay type: cell-based; conditions: Ca influx (calcium uptake assay), hP2X2/3H; read-out: IC50 hP2X2/3H
Readings of IC50 for the listed compounds

Known results for compounds:
Cc1ccc(-c2cc(C(=O)NCc3ccn4ccnc4c3)cc(S(C)(=O)=O)c2)nc1; 0.1 to 0.5 µM
Cc1ccc(-c2cc(C(=O)N[C@H](C)c3ccc(C)nc3)cc(C(C)O)c2)c(C#N)c1 (some centres unmarked); < 0.1 µM
Cc1ccc(-c2cc(C(=O)N[C@H](CO)c3cnc(C)nc3)cc(S(C)(=O)=O)c2)cc1; < 0.1 µM
Cc1ccc(-c2cc(OC3CCOC3)cc(C(=O)N[C@H](C)c3ccc(C)nc3)c2)nc1 (some centres unmarked); < 0.1 µM
Cc1ccc(-c2cc(OC3CNCC3O)cc(C(=O)N[C@H](C)c3ccc(C)nc3)c2)cc1 (some centres unmarked); 0.1 to 0.5 µM
COCCOc1cc(C(=O)NCc2ccc(C)nc2)cc(-c2ccc(C)cc2C#N)c1; 0.1 to 0.5 µM
Cc1ccc(-c2cc(C(=O)NC(c3ccc(C)nc3)C(F)(F)F)cc(C(=O)N3CCCC3)c2)cc1 (centres unmarked); > 1 µM
Cc1ccc(-c2cc(OC3COCC3O)cc(C(=O)N[C@H](C)c3ccc(C)nc3)c2)nc1 (some centres unmarked); 0.1 to 0.5 µM
COCc1cc(C(=O)NCc2cnc(C)nc2)cc(-c2ccc(C)cn2)c1; 0.501 to 1 µM
Cc1ccc(-c2cc(C(=O)NCc3cnc4[nH]ccc4c3)cc(C(=O)N3CCCC3)c2)cc1; > 1 µM

Exercise: Form: Entry = `Cc1ccc(-c2cc(Oc3ncccn3)cc(C(=O)N[C@H](C)c3cnc(C)nc3)c2)cc1` | System = hP2X2/3H (Homo sapiens, UniProt P56373+Q9UBL9) | IC50 = ____
Solution: 0.1 to 0.5 µM

====

target: hP2X2/3H (Homo sapiens, UniProt P56373+Q9UBL9); construct: expressed in transfected cells; host or cells: e.g. HEK293 or 1321N1; assay: Calcium uptake assay (P2X antagonist assay), P2X2/3 heteromer; type: cell-based; settings: Ca influx (calcium uptake assay), hP2X2/3H; read-out: IC50 hP2X2/3H
pIC50: −log10 of the molar value.
attribute-measured: pIC50

Cc1ccc(-c2cc(C(=O)N[C@H](C)c3ccc(C)nc3)cc(C(O)c3ccccn3)c2)c(C#N)c1 (stereo partly shown); > 7.00

Exercise: Reported pIC50 for hP2X2/3H (Homo sapiens, UniProt P56373+Q9UBL9), given Cc1ccc(-c2cc(C(=O)NCc3ccc(C)nc3)cc(C(O)CN3CCOCC3CO)c2)cc1 (stereo not shown) ?
Solution: > 7.00

Exercise: Provide the documented pIC50 with hP2X2/3H (Homo sapiens, UniProt P56373+Q9UBL9) as the system for Cc1ccc(-c2cc(OC3CCOC3)cc(C(=O)N[C@H](C)c3cnc(C)nc3)c2)c(C#N)c1 (stereo partly shown)
Solution: > 7.00

Exercise: Return pIC50 measured with hP2X2/3H (Homo sapiens, UniProt P56373+Q9UBL9) given this compound: Cc1ccc(-c2cc(C(=O)NCc3ccc(C)[n+]([O-])c3)cc(C(O)CN3CCCC3)c2)cc1 (stereo not shown)
Solution: 6.30 to 7.00

====

# IC50 per entry
Target: hP2X2/3H (Homo sapiens, UniProt P56373+Q9UBL9)
Construct: expressed in transfected cells; host or cells: e.g. HEK293 or 1321N1
Sequence (Q9UBL9 1-471): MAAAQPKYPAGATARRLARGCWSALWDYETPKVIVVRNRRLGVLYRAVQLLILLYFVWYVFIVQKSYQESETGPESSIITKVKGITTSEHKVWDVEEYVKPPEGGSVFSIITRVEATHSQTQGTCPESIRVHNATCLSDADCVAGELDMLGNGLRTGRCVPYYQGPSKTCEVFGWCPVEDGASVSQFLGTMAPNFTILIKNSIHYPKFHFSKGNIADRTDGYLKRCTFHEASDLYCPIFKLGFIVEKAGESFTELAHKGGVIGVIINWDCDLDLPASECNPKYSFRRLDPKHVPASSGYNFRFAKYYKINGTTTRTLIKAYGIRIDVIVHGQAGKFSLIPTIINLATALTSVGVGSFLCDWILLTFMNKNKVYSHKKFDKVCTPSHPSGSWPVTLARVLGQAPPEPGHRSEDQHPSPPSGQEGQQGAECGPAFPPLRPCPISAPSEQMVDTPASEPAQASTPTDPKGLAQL
Sequence (P56373 1-397): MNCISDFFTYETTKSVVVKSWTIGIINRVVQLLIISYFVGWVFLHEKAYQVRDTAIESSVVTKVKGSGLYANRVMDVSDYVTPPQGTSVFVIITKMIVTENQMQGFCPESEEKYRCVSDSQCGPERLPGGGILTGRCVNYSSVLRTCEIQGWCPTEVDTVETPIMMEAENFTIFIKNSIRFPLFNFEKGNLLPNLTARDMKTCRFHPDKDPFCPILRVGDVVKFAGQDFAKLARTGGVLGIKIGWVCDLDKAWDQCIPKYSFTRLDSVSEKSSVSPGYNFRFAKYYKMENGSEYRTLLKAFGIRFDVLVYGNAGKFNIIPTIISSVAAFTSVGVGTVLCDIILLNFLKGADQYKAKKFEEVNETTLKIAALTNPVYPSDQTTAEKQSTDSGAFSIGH
Assay: Calcium uptake assay (P2X antagonist assay), P2X2/3 heteromer
Assay type: cell-based
Details: Ca influx (calcium uptake assay), hP2X2/3H; read-out: IC50 hP2X2/3H

These solved cases illustrate the format of a correct answer.
Cc1ccc(-c2cc(Oc3ccccn3)cc(C(=O)N[C@H](C)c3ccc(C)nc3)c2)c(C#N)c1; < 100 nM
Cc1ccc(-c2cc(C(=O)NCc3ccc(C)nc3)cc(C(O)CN(C)C)c2)cc1 (stereo not shown); > 1000 nM
Cc1ccc(-c2cc(CN3CCN(C)CC3)cc(C(=O)NCc3ccc(C)nc3)c2)nc1; 501 to 1000 nM

With those in mind, consider the next molecule.
Exercise: Given Cc1ccc(-c2cc(C(=O)N[C@H](C)c3cnc(C)nc3)cc(C(O)c3nccs3)c2)cc1 (stereo partly shown) , state its recorded IC50.
Solution: < 100 nM

====

Target: hP2X3 (Homo sapiens)
Construct: expressed in transfected cells; host or cells: e.g. HEK293 or 1321N1
Sequence (P56373 1-397): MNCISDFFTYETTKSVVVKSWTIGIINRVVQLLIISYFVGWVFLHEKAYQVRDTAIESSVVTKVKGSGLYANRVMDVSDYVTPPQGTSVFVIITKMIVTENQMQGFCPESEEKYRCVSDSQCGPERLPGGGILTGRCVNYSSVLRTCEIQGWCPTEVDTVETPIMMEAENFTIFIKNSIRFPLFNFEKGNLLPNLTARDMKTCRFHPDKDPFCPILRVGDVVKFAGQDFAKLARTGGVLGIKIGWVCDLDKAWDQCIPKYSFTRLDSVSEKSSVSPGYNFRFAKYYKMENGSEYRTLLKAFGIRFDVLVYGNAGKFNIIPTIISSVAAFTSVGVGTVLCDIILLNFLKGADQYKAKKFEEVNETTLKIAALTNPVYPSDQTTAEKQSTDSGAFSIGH
Assay: Calcium uptake assay (P2X antagonist assay), P2X3 homomer
Assay type: cell-based
Settings: calcium uptake assay, hP2X3; read-out: IC50 hP2X3 (nM), Ca Influx
attribute-measured: IC50

Cc1ccc(-c2cc(C(=O)NCc3ccc(C)nc3)cc(C(=O)N3CCN(C(C)C)CC3)c2)cc1 [Compound 125]; < 100 nM
Cc1ccc(-c2cc(C(=O)N[C@H](CCO)c3ccc(C)nc3)cc(C(=O)N(C)CC(C)C)c2)cc1 [Compound 13]; 100 to 500 nM
COc1ncc(CNC(=O)c2cc(C(=O)N3CCCC3)cc(-c3ccc(C)cc3)c2)c(N)n1 [Compound 79]; 100 to 500 nM
Cc1ccc(-c2cc(C(=O)NCc3cnc(C)nc3)cc(C(=O)N3CCCCCC3)c2)cc1 [Compound 19]; < 100 nM

Exercise: Given Cc1ccc(-c2cc(C(=O)NCc3ccc(C(F)(F)F)c(F)c3)cc(C(=O)N3CCCC3)c2)nc1 [Compound 145] , state its recorded IC50.
Solution: 100 to 500 nM

Exercise: What measured IC50 goes with Cc1ccc(-c2cc(C(=O)N[C@H](C)c3cnn(C)c3Cl)cc(C(=O)N3CCCC3)c2)cc1 [Compound 108] ?
Solution: < 100 nM

Exercise: Item under review: Cc1ccc(-c2cc(C(=O)NCc3cnc(C)nc3)cc(C(=O)N3CCOCC3)c2)cc1 [Compound 24] . Reported IC50?
Solution: < 100 nM

Exercise: For Cc1ccc(-c2cc(C(=O)NCc3cnc(C)nc3)cc(C(=O)N3CCC3)c2)cc1 [Compound 30] , what is its reported IC50?
Solution: < 100 nM
